cell viability listing for selected compounds.
# Tested on: P12-Ichikawa
# ASSAY_TEXT: cell viability relative to DMSO control; higher = less cytotoxic
# CONDITION_DETAILS: HPLM + 10% dialyzed FBS; 48 h; 0.0632 µM
The figure you give is taken to be in %; do not add the unit.

{"columns": ["COMPOUND", "TESTED_TARGET", "MEASUREMENT_UNITS", "RECORDED_RESULT"],
 "data": [
  ["CN1CC/C(CC1)=C3\\c4ccccc4CC(=O)c2sccc23", "P12-Ichikawa", "%", 119]
]}

Summary for this compound, "C[C@]12CC[C@@H]3c4ccc(O)cc4CC[C@H]3[C@@H]1CC[C@@H]2O" : cell viability is 112

The recorded cell viability for "CN(C)/[N+]([O-])=N/Oc1cc(ON[N+](=O)N2CCN(C(=O)c3cc(Cc4n[nH]c(=O)c5ccccc45)ccc3F)CC2)c([N+](=O)[O-])cc1[N+](=O)[O-]" is 120

Reported cell viability of "CO[C@@H]1[C@@H](OC(N)=O)[C@@H](O)[C@H](OC2=CC=C3\C(=C(NC(=O)C4=CC=C([O-])C(=C4)CC=C(C)C)/C(=O)OC3=C2C)O)OC1(C)C" : 111

// recorded cell viability for CCC(=O)OC1CCC2C3CCC/4=C/C(=O)CC[C@@]4(C)C3CC[C@]12C (some centres not stated) : 126

# compound CC(=O)Oc1cc2c(s1)CCN(C(C(=O)C1CC1)c1ccccc1F)C2.Cl (configuration not stated) ; its cell viability = 107

// recorded cell viability for "CCC[C@@H](C=O)NC(=O)[C@H](CC(C)C)NC(=O)[C@H](CC(C)C)NC(=O)OCc1ccccc1" : 117

Looking up "CCNC(=O)Nc1ccc(-c2nc3c(c(N4CCOC[C@@H]4C)n2)CCN(C2COC2)C3)cc1" , I found its cell viability recorded as 110

Record "Cc1ccc(NC(=O)c2cccc(N(C)C)c2)cc1NC(=O)c1ccc(O)cc1" , field cell viability: 111

Query "CCCC1=N[N](C)C2=C1\N=C(/NC2=O)C3=CC(=CC=C3OCC)[S+]([O-])(=O)N4CCN(C)CC4" yields cell viability of 90.7

Reported cell viability ( "CN(c1nccc(=O)[nH]1)C1CCN(c2nc3ccccc3n2Cc2ccc(F)cc2)CC1" ) = 111

Form: compound = "N#CC1(c2ccc(NC(=O)c3cccnc3NCc3ccncc3)cc2)CCCC1" ; cell viability = 116

====

cell viability reference
# Test system: P12-Ichikawa
# ASSAY_TEXT: cell viability relative to DMSO control; higher = less cytotoxic
# CONDITION_DETAILS: RPMI 5 mM glucose + 10% dialyzed FBS; 48 h; 0.569 µM
Write the value in % as a bare number.

{"columns": ["COMPOUND", "RECORDED_RESULT"],
 "data": [
  ["O=[S+]([O-])(O)c1ccc2cc(/N=N/c3cc([S+](=O)([O-])O)c4cccnc4c3O)ccc2c1", 117],
  ["COc1ccccc1OCCNCC(O)COc1cccc2[nH]c3ccccc3c12 (stereo not drawn)", 115],
  ["COc1ccc2c(OCc3nnc4ccc(-c5ccccc5)nn34)ccnc2c1", 106]
]}

Memo: "CO[C@H]1/C=C/O[C@@]2(C)Oc3c(C)c(O)c4c(O)c(c(/C=N\N5CCN(C6CCCC6)CC5)c(O)c4c3C2=O)NC(=O)/C(C)=C\C=C\[C@H](C)[C@H](O)[C@@H](C)[C@@H](O)[C@@H](C)[C@H](OC(C)=O)[C@@H]1C" , reported cell viability: 85.2

Consider "C=CCc1cc(OC)c(O)c(C(=O)NCCO)c1" . Its measured cell viability is 105

cell viability reading for "O=C(O)CCNc1cc(N2CCc3ccccc3CC2)nc(-c2ccccn2)n1" : 115

For record "CCC[C@@H](C=O)NC(=O)[C@H](CC(C)C)NC(=O)[C@H](CC(C)C)NC(=O)OCc1ccccc1" the listed cell viability is 133

For reference, reported cell viability for "C=CC(=O)Nc1cccc(Oc2nc(Nc3ccc(N4CCN(C)CC4)cc3OC)ncc2Cl)c1" stands at 74.6

====

Collected AUC of viability dose-response curve values appear next to each entry.
# System: NOMO1
# ASSAY_TEXT: AUC of viability dose-response curve (% viability x log10 dose units); higher = less sensitive
# CONDITION_DETAILS: HPLM + 10% dialyzed FBS; 48 h

Field: example entries. Status: answers known.
{"columns": ["STRUCTURE", "AUC of viability dose-response curve"],
 "data": [
  ["CC(C)(C)Cn1c(N)nc2ccc(-c3[nH]c(C(C)(C)C)nc3-c3ccc(F)cc3)nc21", 367],
  ["O=C(C1CC1)N1CC[C@@H](Cn2c(-c3ccc(-c4ccc5occc5c4)cc3)nc3cnccc32)C1", 469],
  ["C[C@@H](NCc1cc2ccccc2[nH]1)c1cccc2ccccc12", 443],
  ["CC(=O)OCC(=O)[C@@]12OC(C)(C)O[C@@H]1C[C@H]3[C@@H]4C[C@H](F)C/5=C/C(=O)/C=C\\[C@]5(C)[C@@]4(F)[C@@H](O)C[C@]23C", 474],
  ["CN(C)/[N+]([O-])=N/Oc1cc(ON[N+](=O)N2CCN(C(=O)c3cc(Cc4n[nH]c(=O)c5ccccc45)ccc3F)CC2)c([N+](=O)[O-])cc1[N+](=O)[O-]", 438],
  ["OCCn1cc(-c2ccc3c(c2)CC/C3=N\\O)c(-c2ccncc2)n1", 464],
  ["COc1ccc(C(=O)CC(=O)c2ccc(C(C)(C)C)cc2)cc1", 449],
  ["CCNC(=O)Nc1ccc(-c2nc3c(c(N4CCOC[C@@H]4C)n2)CCN(C2COC2)C3)cc1", 352]
]}

The reported AUC of viability dose-response curve of the compound "CN1CCN(Cc2ccc(NC(=O)Nc3ccc(Oc4cc(NC(=O)C5CC5)ncn4)cc3)cc2C(F)(F)F)CC1" was 271

The value of AUC of viability dose-response curve measured for the compound "CCc1c(O)cc(O)c(C(=O)c2ccc(OCCN3CCOCC3)c(OC)c2)c1CC(=O)N(CCOC)CCOC" turned out to be 359

Recorded AUC of viability dose-response curve (compound "Nc1nc2ccc(OC(F)(F)F)cc2s1" ): 453

"O=C1c2c(O)cc(O)cc2O[C@H](c2cc(O)c(O)c(O)c2)[C@H]1O" has a reported AUC of viability dose-response curve of 430

====

Below: a set of entries, each annotated with reported cell viability.
# System: SEM cells
# ASSAY_TEXT: cell viability relative to DMSO control; higher = less cytotoxic
# CONDITION_DETAILS: RPMI 5 mM glucose + 10% dialyzed FBS; 48 h; 0.0211 µM
# unit: % | format: bare number

cell viability in this record for "CC1(C)Cc2c(sc(NC(=S)NC(=O)c3ccccc3)c2C(=O)O)CO1" : 87.8

Input CCC(=O)OC1CCC2C3CCC/4=C/C(=O)CC[C@@]4(C)C3CC[C@]12C (stereo partly drawn) . Output cell viability: 114

Input OCCNC1CCCc2c1[nH]c1ccc(-c3ccccc3)cc21 (stereo not drawn) . Output cell viability: 96.1

====

# Tested on: NOMO1
# ASSAY_TEXT: AUC of viability dose-response curve (% viability x log10 dose units); higher = less sensitive
# CONDITION_DETAILS: HPLM + 10% dialyzed FBS; 48 h
Reported AUC of viability dose-response curve values for the following molecules.
I'd appreciate a reply containing only the number, no unit.

Some solved entries appear below for comparison.
{"columns": ["MOLECULE", "TESTED_TARGET", "AUC of viability dose-response curve"],
 "data": [
  ["CC[C@H](NC(C)C)[C@H](O)c1ccc(O)c2[nH]c(=O)ccc12", "NOMO1", 470],
  ["Cn1c(=O)c2[nH]cnc2n(C)c1=O", "NOMO1", 464],
  ["O=[S+]([O-])(CCSSCC[S+](=O)([O-])[O][Na])[O][Na]", "NOMO1", 432],
  ["CC(Cc1ccc(O)c(O)c1)(NN)C(=O)O (stereo not given)", "NOMO1", 475],
  ["CC(C)C(=O)Nc1ncc(-c2cc(C(F)F)nn2-c2c(Cl)cccc2Cl)s1", "NOMO1", 468],
  ["CN1C2=CC(=O)/C(=N/NC(N)=O)C=C2CC1S(=O)(=O)[O-].[Na+] (stereo not given)", "NOMO1", 454],
  ["NC(=O)c1cnc(-c2ccc(C3(N)CCC3)cc2)c(-c2ccccc2)c1", "NOMO1", 428],
  ["C[C@]12CC[C@@H]3c4ccc(O)cc4CC[C@H]3[C@@H]1CC[C@@H]2O", "NOMO1", 435]
]}

// field: AUC of viability dose-response curve; key: "CN1CC/C(CC1)=C3\c4ccccc4CC(=O)c2sccc23" ; value = 462

// sample "CO[C@H]1/C=C/O[C@@]2(C)Oc3c(C)c(O)c4c(O)c(c(/C=N/N5CCN(C)CC5)c(O)c4c3C2=O)NC(=O)/C(C)=C\C=C\[C@H](C)[C@H](O)[C@@H](C)[C@@H](O)[C@@H](C)[C@H](OC(C)=O)[C@@H]1C" , its AUC of viability dose-response curve was 431

Just for reference, the supplement of paper PMC11451515 is where these values come from.
